Examples of compounds with documented Inhibition 4 follow.
Target: cloned human or rodent CNS receptors, channels, and transporters (PDSP panel) (Homo sapiens)
Construct: expressed in transfected cells
Sequence (P50406 whole entry): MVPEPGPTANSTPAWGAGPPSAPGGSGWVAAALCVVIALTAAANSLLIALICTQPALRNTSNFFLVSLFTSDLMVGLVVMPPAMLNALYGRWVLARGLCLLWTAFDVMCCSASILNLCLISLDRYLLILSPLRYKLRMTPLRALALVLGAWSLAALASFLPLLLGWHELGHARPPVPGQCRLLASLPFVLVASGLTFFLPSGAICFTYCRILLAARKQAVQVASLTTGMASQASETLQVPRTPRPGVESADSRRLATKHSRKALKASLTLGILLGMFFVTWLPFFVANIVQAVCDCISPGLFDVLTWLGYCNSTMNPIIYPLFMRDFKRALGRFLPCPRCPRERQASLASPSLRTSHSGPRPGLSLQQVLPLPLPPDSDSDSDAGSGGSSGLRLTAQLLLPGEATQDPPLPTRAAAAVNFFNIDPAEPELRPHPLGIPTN
Assay: PDSP GPCR panel primary binding assays at 10 μM
Conditions: Receptor 5-HT6; primary assay, 10 μM
Enter your answer as a number in %; do not include the unit.

Before answering, review these 3 worked examples.
Enquiry: Dear colleague, I am looking for the recorded Inhibition 4 of the following compound: CCCCNc1ncc2c(-c3ccc(CN4CCN(C)CC4)cc3)cn([C@H]3CC[C@H](O)CC3)c2n1 [UNC2025C, UNC2025]
Return: -2.02

Enquiry: Follow-up entry: O=c1oc2ccccc2cc1-c1cn2cc(Cc3ccc(F)cc3)sc2n1 [UNC10302680A, iMDK]
Return: -18.86

Enquiry: Please give the result for c1cn2cc(-c3ccc4cn[nH]c4c3)nc(Nc3ccc(N4CCOCC4)cc3)c2n1 [UNC10302678A, Entospletinib (GS-9973)] too.
Return: -15.68

Continuing:
Enquiry: Suppose we examine the compound Cl.NC(=O)c1cnc(N[C@@H]2CCCC[C@@H]2N)nc1Nc1cccc(-n2nccn2)c1 [UNC10302682A, P505-15 (PRT06207 HCl)] ; what Inhibition 4 value has been reported?
Return: -7.9

Source listed as paper PMC9005681.
